Entry source: ChEMBL document CHEMBL3507680

# protocol-summary: Human HepG2 cell viability assay in 384 well format
# Format: toxicity, cell-based
# Design: dose 125 nL, time 70.5 hour; concentration not given beside the values
# run-conditions: HepG2 cells, read-out: Inhibition
readout-name: cytotoxicity at 70.5 h (%)
Numbers only, in %.

Examples with their reported cytotoxicity at 70.5 h follow.
chemical-string: CCOc1c(F)cccc1C(=O)N(C)CCn1cccn1
cytotoxicity at 70.5 h (%): 7.19
//
chemical-string: CCc1nnc2n1CCN(C(=O)c1cc3ccc(C)cc3[nH]1)C2
cytotoxicity at 70.5 h (%): -12.2

Input line: Find the measured cytotoxicity at 70.5 h of COC(=O)CN(Cc1ccccc1C)C(=O)COCC1CC1 and report it.
Output line: -2.06

* * *

# protocol-summary: Human HepG2 cell viability assay in 384 well format
# Format: toxicity, cell-based
# Parameters: dose 125 nL, time 70.5 hour; concentration not given beside the values
# run-conditions: HepG2 cells, read-out: Inhibition
Would you kindly list cytotoxicity at 70.5 h for each of these compounds?
One number for each entry, in %.

Answered examples (5):
compound: CCn1cnnc1CNC(=O)N(C)Cc1cccc(OC(F)F)c1
cytotoxicity at 70.5 h, %: -0.632
--
compound: Cc1nc(C)c2c(n1)CCN(C(=O)C1(C#N)CC1)CC2
cytotoxicity at 70.5 h, %: -1.89
--
compound: CCn1ccnc1CN(C)c1cc(C2CCCNC2)nc(C)n1 (stereo not given)
cytotoxicity at 70.5 h, %: -1.8
--
compound: CCn1cc(C(=O)N2CCOCC2)cn1
cytotoxicity at 70.5 h, %: -3.04
--
compound: O=C(NCc1cnn2ccccc12)NC1CCCC1
cytotoxicity at 70.5 h, %: -15.5

Quick request: cytotoxicity at 70.5 h for each listed item, please.
1. CCCN(C(=O)COCC)c1cccc(C)c1
2. Cc1cnc(N2C[C@@H]3CCN(CC(=O)N(C)C)C(=O)[C@H]3C2)nc1
3. Cc1nc(CN2CCN(C(=O)CCC(=O)c3ccccc3)CC2)no1
4. COc1cc(-c2n[nH]c(CCN)n2)cc(OC)c1OC
5. Cc1nc2ccc(S(=O)(=O)Nc3c(C)nn(CC(=O)O)c3C)cc2s1

Output line:
1. -4.58
2. 4.34
3. 12.6
4. 22.8
5. -10.8

* * *

# protocol-summary: Human HepG2 cell viability assay in 384 well format
# Type: toxicity, cell-based
# Parameters: dose 125 nL, time 70.5 hour; concentration not given beside the values
# run-conditions: HepG2 cells, read-out: Inhibition
readout-name: cytotoxicity at 70.5 h (%)
Give bare numbers, in %.

compound: O=C1CCCC2(CCN(C(=O)c3ccccn3)CC2)N1
readout-name: cytotoxicity at 70.5 h
readout-unit: %
meas-value: -1.46
--
compound: CSc1ccc(CNc2n[nH]c(C)n2)cc1
readout-name: cytotoxicity at 70.5 h
readout-unit: %
meas-value: 44.9
--
compound: CN(C)Cc1ccnc(C2CN(Cc3nccs3)CCO2)n1 (centres undefined)
readout-name: cytotoxicity at 70.5 h
readout-unit: %
meas-value: 1.69

Input line: Give cytotoxicity at 70.5 h for Cc1ccc(C(C)NC(=O)Cc2c(C)nc3cc(=O)[nH]n3c2C)s1 (centres undefined)
Output line: -10.8

* * *

Give measured cytotoxicity at 70.5 h for each item. Keep answers brief.
# protocol-summary: Human HepG2 cell viability assay in 384 well format
# Type: toxicity, cell-based
# Set-up: dose 125 nL, time 70.5 hour; concentration not given beside the values
# run-conditions: HepG2 cells, read-out: Inhibition
One number for each entry, in %.

compound: Cc1ccc(CN2CCCC(c3cncc(C)n3)C2)cn1 (stereo not drawn)
cytotoxicity at 70.5 h (%): -2.94

Batch: cytotoxicity at 70.5 h for all items listed.
1. CN(C1CCN(c2ccccn2)CC1)S(=O)(=O)N1CCOCC1
2. CC(=O)N[C@H]1CCN(c2nc(C)nc3c2c(C)nn3C)C1
3. COc1cccc(-n2nnc(C(=O)N3CCN(C)CC3C)c2C)c1 (stereo not drawn)
4. COC(=O)c1cccn1C1CCN(Cc2nc3ccccc3o2)CC1
5. CC(=O)N1C[C@@H](c2ccsc2)[C@@H]2CN(Cc3ccccc3Cl)CC[C@@H]21
6. CC(C)c1nnsc1CNC(=O)C1CCN(C(=O)C2CCC2)CC1
7. CCn1nccc1S(=O)(=O)N1CCC2(CCCN(C(C)C)C2=O)C1 (stereo not drawn)
8. CSCCCN1CCCC(Cn2ccnc2)C1 (stereo not drawn)

Output line:
1. -7.57
2. -8.71
3. 56.4
4. -3.04
5. -5.99
6. -5.12
7. -14.6
8. -11.5

* * *

# protocol-summary: Human HepG2 cell viability assay in 384 well format
# Assay type: toxicity, cell-based
# Design: dose 125 nL, time 70.5 hour; concentration not given beside the values
# run-conditions: HepG2 cells, read-out: Inhibition
readout-name: cytotoxicity at 70.5 h (%)
Answers are plain numbers, in %.

Use the examples below as a reference point.
compound: Cc1cccc(NS(=O)(=O)c2ccc(C#N)nc2)c1C#N
readout-name: cytotoxicity at 70.5 h
readout-unit: %
meas-value: -4.92

compound: O=C(NC(c1ccc(Cl)cc1)C(F)(F)F)c1nc(=O)[nH][nH]1 (configuration not stated)
readout-name: cytotoxicity at 70.5 h
readout-unit: %
meas-value: 29.9

compound: Cc1ncsc1C(=O)NC1CCN(Cc2ccc(C#N)cc2)CC1
readout-name: cytotoxicity at 70.5 h
readout-unit: %
meas-value: -14.1

compound: COCC(=O)N1CCCC2(COCCN(CCN(C)C)C2)C1 (configuration not stated)
readout-name: cytotoxicity at 70.5 h
readout-unit: %
meas-value: 8.27

compound: CCCN1CCC(NN2CCN(C)CC2)CC1
readout-name: cytotoxicity at 70.5 h
readout-unit: %
meas-value: -6.76

Provide each entry's cytotoxicity at 70.5 h from the list below.
1. Cc1nn(C)cc1-c1ccnc(N2CCCN(CC(C)C)CC2)n1
2. CSc1ccccc1CC1CCCS(=O)(=O)C1 (configuration not stated)
3. CC(=O)N1CC[C@H]2OCC[C@@H](C(=O)NCc3ccco3)[C@@H]2C1
4. CN(C)C1CCN(C(=O)NCc2ccc(Cn3cncn3)cc2)CC1
5. CCOc1ncccc1NC(=O)c1ccc(C(C)=O)s1
6. COC1CCN(c2ccc(NC(=O)Cn3cccc3)cc2)CC1
7. CC(=O)NCc1ccc(C(=O)N2CCCc3c(F)ccc(C)c32)o1
8. CC(=O)N1CC(=O)N(c2ccccc2)CC12CCN(Cc1ccsc1)C2 (configuration not stated)

Output line:
1: -6.83; 2: 3.79; 3: 26.4; 4: 14.8; 5: -14.4; 6: -11; 7: -2.6; 8: -8.03

# batch size: 2; output cytotoxicity at 70.5 h per entry
1. COC(=O)C1CCN(C(=O)NCC(C)Cc2cccs2)CC1 (configuration not stated)
2. COC(=O)c1cc(C(=O)N2CCOCC2(C)C)n(-c2ccccc2)n1

Output line:
1. -14.5
2. -0.593

// for each compound in input: emit cytotoxicity at 70.5 h
1. Cc1ccccc1CN1C[C@@H]2OCC(=O)N(CC(N)=O)[C@@H]2C1
2. CC(=O)c1ccn(CC(=O)Nc2nn(CC3CC3)c3ccccc23)n1
3. CCc1cc(C(=O)N2CCCn3nc(CCC(=O)O)cc3C2)cs1
4. CCOc1ccc(CC(CNC(=O)c2ccoc2C)C(N)=O)cc1 (configuration not stated)
5. CC(C)n1ccnc1CN1CCOC(CC2CCCCC2)C1 (configuration not stated)
6. Cn1nc(CO)c2c1CCN(c1ncnc3c1CCNC3)C2
7. Fc1cccc(CN2C[C@@H]3CN(c4ncccn4)C[C@@H]3C2)c1

Output line:
-0.694
-10.7
-8.44
-10.1
5.36
-6.14
-3.5

* * *

# protocol-summary: Human HepG2 cell viability assay in 384 well format
# Assay type: toxicity, cell-based
# Parameters: dose 125 nL, time 70.5 hour; concentration not given beside the values
# run-conditions: HepG2 cells, read-out: Inhibition
Give cytotoxicity at 70.5 h for every item shown.
One number for each entry, in %.

molecule: CC1CN(Cc2cccc(C#N)c2)CCN1c1ccc2nncn2n1 (centres undefined)
cytotoxicity at 70.5 h [%]: -5.84

molecule: CCOc1ccc(C#N)cc1NCC(=O)NC(=O)Nc1ccccc1
cytotoxicity at 70.5 h [%]: -8.89

molecule: CCc1noc(CN(CC)Cc2cc3ccc(C)cc3[nH]c2=O)n1
cytotoxicity at 70.5 h [%]: 7.76

molecule: CC[C@@]1(O)CCN(c2ncc(Cl)cc2C(F)(F)F)C[C@H]1O
cytotoxicity at 70.5 h [%]: 20.8

molecule: NC(=O)c1ccc(S(=O)(=O)NCCc2ccccn2)cc1
cytotoxicity at 70.5 h [%]: 1.11

molecule: Cc1cccc(COc2ccc(C(C)NC(=O)CNC(N)=O)cc2)c1 (centres undefined)
cytotoxicity at 70.5 h [%]: -0.269

molecule: Cc1cnn(CC(C)NCc2ccccc2OCc2cccnc2)c1 (centres undefined)
cytotoxicity at 70.5 h [%]: -7.82

molecule: Cc1nn(C)c(C)c1C(C)NCc1ccsc1 (centres undefined)
cytotoxicity at 70.5 h [%]: 3.61

Required: cytotoxicity at 70.5 h, one value per molecule below.
1. Cc1ccc2oc(N3CCN(CC(=O)NC(C)C)CC3)nc2c1
2. Cc1ccccc1CN1CCCC1c1cccc(Nc2nccs2)n1 (centres undefined)

Output line:
[10.6, 70.5]

For each of the molecules below, note its cytotoxicity at 70.5 h.
1. C1CCC(CSc2nnnn2C2CC2)OC1 (centres undefined)
2. Cc1ccc(-c2ncc(C(=O)NCCNC(=O)C3CC3)s2)c(C)c1
3. CCc1nnc(CN2CCC3(CC2)Nc2ccccc2NC3=O)o1
4. COc1cccc(N2CCN(C(=O)c3ccc(=O)n(C)c3)CC2)c1
5. CCn1nc(C)c(CCNC(=O)c2coc(CN3CCOCC3)c2)c1C
6. Cc1nc(-c2ccccc2)n(CC(=O)NC2CCCCC2)n1

Output line:
[-0.703, -6.37, 19.8, -3.95, 0.862, -14.1]

Give me cytotoxicity at 70.5 h for each of these molecules, listed below.
1. Nc1nc2c(s1)C(c1c(F)cccc1Cl)CC(=O)N2 (centres undefined)
2. c1cc(CNCc2ccnc(N3CCCC3)c2)c2c(c1)OCCO2
3. O=C(Nc1cc(CSCCO)ccn1)c1cc2ccccc2[nH]1

Output line:
[1.77, 5.3, 13.4]

Working through the 4 molecules below one at a time, give cytotoxicity at 70.5 h for each.
1. c1cnc(NC[C@H]2OC[C@@H]3CCN(Cc4ccsc4)C[C@@H]32)nc1
2. O=C(c1cncc2ccccc12)N1CCC[C@@H]1CO
3. Cc1cccnc1CN(C)CC1(O)CCCN(CC2CCCCC2)C1=O (centres undefined)
4. COC(=O)NCc1ccc(NC(=O)CC2=CCCCC2)cc1

Output line:
[-6.36, -11.6, 18.2, 0.0251]

Input line: Assign cytotoxicity at 70.5 h to the following record: CC(=O)N1[C@H](CN(C)C)C[C@@H]2CN(C(=O)c3cncc(C)c3)CC[C@@H]21
Output line: -10.6
